Known pIC50 of a selection of compounds
# Assay target: voltage-gated sodium channel of interest (NaV1.7) (Homo sapiens, UniProt Q15858)
# Construct: Gene(s) encoding the full-length protein of the voltage-gated sodium channel of interest are cloned and expressed; expressed in transfected cells
# Sequence (Q15858 whole entry): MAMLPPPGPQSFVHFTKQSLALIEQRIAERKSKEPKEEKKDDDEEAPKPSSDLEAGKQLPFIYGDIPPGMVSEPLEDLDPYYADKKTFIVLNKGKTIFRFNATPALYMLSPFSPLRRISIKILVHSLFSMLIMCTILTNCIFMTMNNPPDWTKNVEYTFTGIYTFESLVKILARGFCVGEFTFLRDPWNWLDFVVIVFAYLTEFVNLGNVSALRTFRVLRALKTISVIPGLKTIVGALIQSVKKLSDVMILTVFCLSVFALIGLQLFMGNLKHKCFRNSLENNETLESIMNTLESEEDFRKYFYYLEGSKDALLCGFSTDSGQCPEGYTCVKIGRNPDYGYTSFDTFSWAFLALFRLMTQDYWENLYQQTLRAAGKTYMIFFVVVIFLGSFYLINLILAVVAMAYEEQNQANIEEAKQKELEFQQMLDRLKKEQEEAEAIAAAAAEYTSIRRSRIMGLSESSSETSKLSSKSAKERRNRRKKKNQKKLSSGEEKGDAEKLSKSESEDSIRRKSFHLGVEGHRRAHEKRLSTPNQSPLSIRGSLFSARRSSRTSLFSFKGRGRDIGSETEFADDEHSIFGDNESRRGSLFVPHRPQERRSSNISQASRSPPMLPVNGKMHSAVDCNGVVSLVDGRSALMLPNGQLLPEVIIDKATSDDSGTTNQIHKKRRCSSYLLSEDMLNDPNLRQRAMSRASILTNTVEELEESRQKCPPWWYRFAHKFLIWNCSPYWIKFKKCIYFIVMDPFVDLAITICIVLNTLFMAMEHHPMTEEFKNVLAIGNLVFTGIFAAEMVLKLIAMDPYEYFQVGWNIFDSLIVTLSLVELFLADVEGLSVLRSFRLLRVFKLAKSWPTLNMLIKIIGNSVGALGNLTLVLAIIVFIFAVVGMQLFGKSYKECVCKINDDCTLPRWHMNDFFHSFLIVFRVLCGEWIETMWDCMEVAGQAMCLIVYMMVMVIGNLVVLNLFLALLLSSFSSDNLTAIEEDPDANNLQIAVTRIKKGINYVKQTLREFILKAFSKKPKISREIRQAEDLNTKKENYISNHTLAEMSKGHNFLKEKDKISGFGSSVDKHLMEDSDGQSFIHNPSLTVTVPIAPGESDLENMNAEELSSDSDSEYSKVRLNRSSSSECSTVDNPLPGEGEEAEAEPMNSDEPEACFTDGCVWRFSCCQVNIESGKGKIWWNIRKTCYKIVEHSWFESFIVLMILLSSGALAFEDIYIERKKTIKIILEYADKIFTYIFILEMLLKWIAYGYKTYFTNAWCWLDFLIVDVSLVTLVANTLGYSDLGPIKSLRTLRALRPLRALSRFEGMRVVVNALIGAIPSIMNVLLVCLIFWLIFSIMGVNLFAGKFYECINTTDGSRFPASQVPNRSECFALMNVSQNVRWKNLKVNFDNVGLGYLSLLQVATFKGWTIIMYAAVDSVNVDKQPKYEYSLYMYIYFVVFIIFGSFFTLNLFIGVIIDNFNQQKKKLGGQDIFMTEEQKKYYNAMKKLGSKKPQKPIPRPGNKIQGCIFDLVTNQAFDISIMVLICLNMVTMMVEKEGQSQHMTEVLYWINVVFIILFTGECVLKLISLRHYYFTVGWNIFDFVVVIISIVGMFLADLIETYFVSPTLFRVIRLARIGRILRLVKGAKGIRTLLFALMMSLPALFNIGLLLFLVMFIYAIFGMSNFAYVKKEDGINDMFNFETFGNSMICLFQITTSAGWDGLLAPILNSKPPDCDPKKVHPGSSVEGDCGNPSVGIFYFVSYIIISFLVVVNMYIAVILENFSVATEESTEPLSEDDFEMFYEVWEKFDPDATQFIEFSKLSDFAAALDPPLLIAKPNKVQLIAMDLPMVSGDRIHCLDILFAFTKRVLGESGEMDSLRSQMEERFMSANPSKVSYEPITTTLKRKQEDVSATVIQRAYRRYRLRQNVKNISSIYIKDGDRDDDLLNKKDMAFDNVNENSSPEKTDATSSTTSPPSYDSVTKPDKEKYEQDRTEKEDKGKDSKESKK
# Test protocol: Whole-cell voltage clamp electrophysiology assay (automated patch-clamp)
# Assay type: cell-based
# Condition label: cells stably expressing the voltage-gated sodium channel
pIC50: −log10 of the molar value.
Readout: pIC50

Compound	Readout	Numeric value
COc1ccccc1CN1C(=O)c2ccccc2C1C(=O)Nc1c(Cl)cccc1Cl (stereo not shown)	pIC50	6.60
COc1ccccc1CN1C(=O)c2ccccc2C1C(=O)Nc1c(C)cccc1Cl (stereo not shown)	pIC50	6.50
Cc1cccc(C)c1NC(=O)C1c2ccccc2C(=O)N1CCOc1cc(C(F)(F)F)ccc1F (stereo not shown)	pIC50	6.70
COc1cc(F)ccc1CN1C(=O)c2ccccc2C1C(=O)Nc1c(C)cccc1C (stereo not shown)	pIC50	7.00
